target under test: GABA B receptor (Rattus norvegicus, UniProt O88871+Q9Z0U4)
Sequence (Q9Z0U4 whole entry): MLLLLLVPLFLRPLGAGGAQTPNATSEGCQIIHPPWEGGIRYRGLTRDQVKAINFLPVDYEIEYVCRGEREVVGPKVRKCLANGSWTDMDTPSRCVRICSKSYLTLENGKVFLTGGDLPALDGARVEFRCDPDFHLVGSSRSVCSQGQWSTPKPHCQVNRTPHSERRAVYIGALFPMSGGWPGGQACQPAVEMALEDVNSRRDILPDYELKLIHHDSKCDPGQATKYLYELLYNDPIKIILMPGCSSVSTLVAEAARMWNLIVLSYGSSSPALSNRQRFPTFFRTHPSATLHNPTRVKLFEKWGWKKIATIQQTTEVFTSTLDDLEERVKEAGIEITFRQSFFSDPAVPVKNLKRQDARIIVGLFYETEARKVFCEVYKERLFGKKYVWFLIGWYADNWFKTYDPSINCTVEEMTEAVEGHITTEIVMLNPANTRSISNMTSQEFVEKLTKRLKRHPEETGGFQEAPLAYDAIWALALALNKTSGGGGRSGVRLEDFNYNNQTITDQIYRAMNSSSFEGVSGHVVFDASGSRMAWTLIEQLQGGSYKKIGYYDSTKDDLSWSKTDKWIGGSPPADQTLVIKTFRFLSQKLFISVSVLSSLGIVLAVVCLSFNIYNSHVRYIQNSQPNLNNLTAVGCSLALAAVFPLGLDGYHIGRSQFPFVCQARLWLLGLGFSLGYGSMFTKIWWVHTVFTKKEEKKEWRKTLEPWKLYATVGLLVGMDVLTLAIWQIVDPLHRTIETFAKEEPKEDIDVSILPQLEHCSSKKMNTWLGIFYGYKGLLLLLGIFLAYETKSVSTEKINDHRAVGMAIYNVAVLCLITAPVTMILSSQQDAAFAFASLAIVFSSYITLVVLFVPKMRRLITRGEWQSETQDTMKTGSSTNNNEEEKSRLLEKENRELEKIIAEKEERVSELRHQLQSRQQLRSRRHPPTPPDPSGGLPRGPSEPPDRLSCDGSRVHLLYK
Sequence (O88871 whole entry): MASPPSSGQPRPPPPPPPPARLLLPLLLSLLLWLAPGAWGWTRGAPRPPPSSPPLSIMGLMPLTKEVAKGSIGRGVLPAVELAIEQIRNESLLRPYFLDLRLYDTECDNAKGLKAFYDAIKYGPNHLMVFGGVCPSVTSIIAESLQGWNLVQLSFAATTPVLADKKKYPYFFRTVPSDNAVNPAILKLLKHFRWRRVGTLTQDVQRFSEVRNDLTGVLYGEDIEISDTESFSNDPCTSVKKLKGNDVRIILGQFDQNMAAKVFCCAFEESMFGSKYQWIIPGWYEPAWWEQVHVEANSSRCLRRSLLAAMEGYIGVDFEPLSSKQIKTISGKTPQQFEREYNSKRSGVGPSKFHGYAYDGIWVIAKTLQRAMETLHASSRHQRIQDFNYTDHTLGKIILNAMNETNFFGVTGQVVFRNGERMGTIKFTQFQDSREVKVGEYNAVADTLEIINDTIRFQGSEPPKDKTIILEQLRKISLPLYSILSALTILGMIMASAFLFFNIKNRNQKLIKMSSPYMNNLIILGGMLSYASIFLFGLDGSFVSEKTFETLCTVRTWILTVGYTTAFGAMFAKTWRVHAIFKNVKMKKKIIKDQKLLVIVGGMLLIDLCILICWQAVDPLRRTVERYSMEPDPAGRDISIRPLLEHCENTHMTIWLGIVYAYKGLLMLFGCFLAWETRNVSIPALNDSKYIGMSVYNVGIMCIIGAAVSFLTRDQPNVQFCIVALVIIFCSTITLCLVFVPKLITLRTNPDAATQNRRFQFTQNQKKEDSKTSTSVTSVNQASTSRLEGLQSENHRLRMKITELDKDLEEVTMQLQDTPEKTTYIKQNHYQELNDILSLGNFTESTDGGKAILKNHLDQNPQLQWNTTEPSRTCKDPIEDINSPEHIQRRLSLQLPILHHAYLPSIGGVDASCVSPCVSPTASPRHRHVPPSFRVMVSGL
experimental protocol: Inhibition of [3H]baclofen binding to rat gamma-aminobutyric acid type B receptor.
result type: IC50

Below: 2 compounds and their reported IC50.
1. NCC(CC(=O)O)c1ccco1 (stereo not drawn): > 100 µM
2. NCC(CC(=O)O)c1ccc(O)cc1 (stereo not drawn): > 100 µM

Now for the compound whose IC50 we want.
The reported value for Cc1ccc(C(CN)CC(=O)O)o1 (stereo not drawn) in terms of IC50 is > 100 µM

Data provenance is ChEMBL document CHEMBL1125187.
